Reference for the values: the supplement of paper PMC10567573

Provide the reported protein stability index of each item.
B1: HDAC6 (parent)
chain: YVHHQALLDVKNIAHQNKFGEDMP

# Variants of: B1
# test: protein stability index of a GFP-peptide fusion (GPS, HEK-293T) (PSI 1-6); higher = more stable;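 also: lentivirally expressed fusions sorted by FACS into six bins by GFP to DsRed ratio, PSI derived from sequencing read proportions per bin multiplied by bin number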
# recorded-conditions: c terminus: a fixed tail appended
Give bare numbers.

Some solved cases for reference:
In [3]: df
Out[3]:
              item_sequence         measurement_kind  obs_value
0  YVHHSALLDVKNIAHQNKFGEDMP  protein stability index       1.76
1  YNHHQALLDVKNIAHQNKFGEDMP  protein stability index       4.12
2  YVHHQAILDVKNIAHQNKFGEDMP  protein stability index       1.83
3  YVHHQALLDVKNIAHQNKFHEDMP  protein stability index       2.19
4  YVHHQALLDVKNIAHQNKFGEDMK  protein stability index       2.25
5  YVHHQALLDAKNIAHQNKFGEDMP  protein stability index       2.33
6  YVWHQALLDVKNIAHQNKFGEDMP  protein stability index       2.41
7  YVHHQALLDVKNIAHQNKFGEIMP  protein stability index       2.21

Give protein stability index for each of the items listed below.
1. YVHHQALLDVKNILHQNKFGEDMP
2. YVHHEALLDVKNIAHQNKFGEDMP
3. YVHHQALLDVKNIAHQKKFGEDMP
4. YVHTQALLDVKNIAHQNKFGEDMP
5. YVHHQALLDVKNIAHQNKFGEDMG
6. YVHHQALLDVKNIAHQNKFGEDCP

1: 1.9; 2: 2.16; 3: 1.97; 4: 1.47; 5: 2.36; 6: 1.95

Give protein stability index for each of the items listed below.
1. YVHHQILLDVKNIAHQNKFGEDMP
2. YVHHQALLDVKNIAHQNKFGEDMR
3. YVHHQAGLDVKNIAHQNKFGEDMP
4. YVHHQALHDVKNIAHQNKFGEDMP

1: 3.2; 2: 1.56; 3: 2.33; 4: 2.72
